experiment: yeast display, Sf9 membrane polyspecificity reagent, FACS + sequencing; frameworks hold sequencing errors

- SEQUENCE ENTRY: "HVQLQESAGGLVQAGGSLRLSCAASGNISYSRNMGWYRQAPGKERELVAAIDRGAITYYADSVKGRFTISRDNATNTVYLQIYSLKPEDTAVYYCAAEYHDRWDHRYWGQGTHVTVSS"
  polyreactivity (PSR sort gate): "high polyreactivity"
- SEQUENCE ENTRY: "QVQLVESGGGLVQAGGSLRLSCAASGFIFYRYVMGWFRQAPGKERELVAAISGRGGSTYYADSVKGRFTISRDNAKNTVYLQMNSLTPEDTAVYYCNRLVYRAAGGPMDYWGQGTQVTVSS"
  polyreactivity (PSR sort gate): "high polyreactivity"
- SEQUENCE ENTRY: "QVQIEESGGGLVQAGGSLRLSCAASGRIFGSYTMGWSRQAPRKERELVAGISRRGGSTYYADSVKGRFTISRDNAKYTVYLQMNSLTTEDTAVYYCNTLRTNLFFTPLGFDYWGQGTQVTVSS"
  polyreactivity (PSR sort gate): "high polyreactivity"
- SEQUENCE ENTRY: "QVQLVESGGGLVQAGGSLRLSCAASGSTFGDNAMGWYRQAPGKEREFVATISWDTATTYYADSVKARFTISRDNAKNTVYLQMNSLKPEDTAVYYCAARATAYYTVPSYADVDYWGQGTQVTVSS"
  polyreactivity (PSR sort gate): "low polyreactivity"
- SEQUENCE ENTRY: "QVQLVESGGGLVQAGGSLRLSCAASGRTFGHNAMGWYRQAPGKEREFVAAITYSGVRTFYADSVKGRFTISRDNAKNTVYLQMNSLKPEDTAVYYCATDWRRDYDYWGQGTQVTVSS"
  polyreactivity (PSR sort gate): "low polyreactivity"

---

assay: yeast display, Sf9 membrane polyspecificity reagent, FACS + sequencing; frameworks hold sequencing errors

- SEQUENCE ENTRY: "QVQLVESGGGLVQAGGSLRLSCAASGNNLRYYAMGWYRQAPGKERELVAAITSSGGSTYYADSVKGRFTISRDNAKNTVYLKMNSLKPEDTAVYYCAAVFSYSRYNYWGQGTQVTVSS"
  polyreactivity (PSR sort gate): "high polyreactivity"
- SEQUENCE ENTRY: "QVQLVESGGGLVQAGGSLRLICAASGFTFARYAMGWYRQAPGKERELVAAITSAGSTSYADSVKGRFTISRDNAKNTVYLQMNSLKPEDTAVYYCAAPFTVRYNYWGQGTKVTVSS"
  polyreactivity (PSR sort gate): "high polyreactivity"

---

assay: yeast display, Sf9 membrane polyspecificity reagent, FACS + sequencing; frameworks hold sequencing errors

- SEQUENCE ENTRY: "QDQLVDSGGGFVQAGGSLSLSCAASRRTFLYYAMGWYRQAPGKERELVAAIRRGSSTYYADSVKGRFTISRDNAKNNGFLQLISLIAADTAVYYCAAEFVNGPPYGAYDYWGQGTQVTVSS"
  polyreactivity (PSR sort gate): "high polyreactivity"
- SEQUENCE ENTRY: "QVQLVESGGGLVQAGGSLRLSCAASGRIFWDNAMGWYRQAPGKERELVAAISDSVVITYYADSVKGRFTISRDNAKNTVYLQMNSLKPEDTAVYYCAADKRGSVYLSSFWMDYWGQGTQVTVSS"
  polyreactivity (PSR sort gate): "low polyreactivity"
- SEQUENCE ENTRY: "QVQLVESGGGLVQAGGSLRLSCAASGRTFRVYVMGWYRQAPGKERELVAAISKSGTSTYYADSVKGRFTISRDNAKNTVYLQMNSLKPEDTAVYYCAAALPGYGDYYYWGQGTQVTVSS"
  polyreactivity (PSR sort gate): "high polyreactivity"
- SEQUENCE ENTRY: "QVQLVESGGGIVQAGGSLRLSCAASGFTFRYNTMGWYRQAPGKERELVAAITSRGTSTYYADSVKGRFTISRDNAKNTVYLQMYSLKPEDTAVYYCNKVYFKGTTRLSVSVYKLEYWGQGTQVTVSS"
  polyreactivity (PSR sort gate): "high polyreactivity"
- SEQUENCE ENTRY: "QVQLVESGGGLVQAGGSLRLSCAASGRIFLSNGMGWYRQAPGKERELVAGITTGGGDSTYYADSVKGRFTISRDNAKNTVYLQMNSLKPEDTAVYYCNADSVYAGFDYWGQGTQVTVSS"
  polyreactivity (PSR sort gate): "low polyreactivity"

---

assay: yeast display, Sf9 membrane polyspecificity reagent, FACS + sequencing; frameworks hold sequencing errors
ASSAY READOUT: polyreactivity (PSR sort gate)

- SEQUENCE ENTRY: "QVQLVESGGGLVQAGGSLRLTCAASGNTFSPNAMGWYRHAPGKERELVAAIDSRDGITYYADSVKGRFTISRDNAKNTVYLQMNSLKPEDTAVYYCAADEWYGESNFWGQGTQVTVSS"
  MEASUREMENT: "low polyreactivity"
- SEQUENCE ENTRY: "QVQLVESGGGLVQAGGSLRLSCAASGRIFSRYAMGWYRQAPGKERELVAIISSGDSTNYADSVKGRFTISRDNAKNTVYLQMNSLKPEDTAVYYCAAANWGTPPYDDWGQGTQVTVSS"
  MEASUREMENT: "low polyreactivity"
- SEQUENCE ENTRY: "QVQLVESGGGLVQAGGSLRLSCAASGRTFRWYAMGWYRQAPGKERELVATITSGGSTNYADSVKGRFTISRDNAKNTVYLQMNSLKPEDTAVYYCAAWSYAYYYRLRYVSHDYWGQGTQVTVSS"
  MEASUREMENT: "high polyreactivity"
- SEQUENCE ENTRY: "QVQLVESGGGLVQAGGSLRLSCAASGFTFRAYAMGWYRQAPGKERELVAAITSGTRTYYADSVKGRFTISRDNAKNTVYLQMNSLKPEDTAVYDCAVGFILPSTFTRMYYWGQGTQVTVSS"
  MEASUREMENT: "high polyreactivity"
- SEQUENCE ENTRY: "QVQLVESGGGLVQAGGSLRLSCAATGSTFRKYAMGWYRQAPGKEREFVAAISSAGGRTYYADSVKGRFTISRDNAKNTVYLQMNSLKPEDTAVYYCNAYFRYSYDYWGQGTQVTVSS"
  MEASUREMENT: "high polyreactivity"

---

experiment: yeast display, Sf9 membrane polyspecificity reagent, FACS + sequencing; frameworks hold sequencing errors

- SEQUENCE ENTRY: "QVQLVESGGGLVQAGGSLRLSCAASGRNLIAYAMGWYRQAPGKEREFVAAIRADDGRTYYADSVKGRFTISRDNAKITVYLQMTSLKPEDTAVYYCAAEWYWLHSWFDYWGQGTQVTVSS"
  polyreactivity (PSR sort gate): "high polyreactivity"
- SEQUENCE ENTRY: "QVQRVESGGGLVQEGGSLRLSCAASGITFAGYAMGWYRQAHGKERELVAAISTRGGSTTYADSVKGRFTISLDNAKNTVYLQMNRLKPEDTAVYYCAADSYYRRYFGWYEYWGQGTQVTVSS"
  polyreactivity (PSR sort gate): "high polyreactivity"
- SEQUENCE ENTRY: "QVQLVESGGRLVQAGGSLRLSCAASGIIFFYYTIGWSRQAPGKERELVAAISSGGGTYYADSVKGRFTISRDNAKNTVYLQMNSLKPEDTAVYYCAAVRYSSSSRGGYWGQGTQVTVSS"
  polyreactivity (PSR sort gate): "high polyreactivity"

---

assay: yeast display, Sf9 membrane polyspecificity reagent, FACS + sequencing; frameworks hold sequencing errors

- SEQUENCE ENTRY: "QVQLVESGGGLVQAGGSLRLSCAASGIIFYPYAMGWYRQAPGKERELVAAISTSGGRTYYADSVKGRFTISRDNAKNTVYLQMNSLKPEDTAVYYCAADNSSGDVNGGGYWGQGTQVTVSS"
  polyreactivity (PSR sort gate): "low polyreactivity"
- SEQUENCE ENTRY: "QVQLVESGGGLVQAGGSLRLSCAASGSTFSPNAMGWYRQAPGKERELVAAITYRGANTYYADSVKGRFTISRDNEKNTVYLQMNSLKPEDNAVYYCAAEYAYHHVGFGYWGQGTQVTVSS"
  polyreactivity (PSR sort gate): "low polyreactivity"

---

experiment: yeast display, Sf9 membrane polyspecificity reagent, FACS + sequencing; frameworks hold sequencing errors

- SEQUENCE ENTRY: "QVQLVESGGGLVQAGGSLRLSCAASGSTFTKNAMGWYRQAPGKERELVAAISFSGGSTYYADSVKGRFTISRDNAKNTVYLQMNSLKPEHTAVYYCAADPHRALPRFDYWGQGTQVTVSS"
  polyreactivity (PSR sort gate): "low polyreactivity"
- SEQUENCE ENTRY: "QVQLVESRGGLVQAGGSLRLSCAASGRTFVPYAMGWYIQAPGKERELVAAISYSGDSTYYADSVKGRFTISRDNAKNTVYLQLNSLKPEDTAVYYCAAPSYFRMGYWGQGTQVTVSS"
  polyreactivity (PSR sort gate): "low polyreactivity"
